Tested on: A549-ACE2 infected with SARS-CoV-2
Experiment description: SARS-CoV-2 infection rate relative to DMSO; higher = more infection
Experimental context: 30 µM; 24 h
Hi there, I'd appreciate the recorded SARS-CoV-2 infection rate for every entry that follows.

Input "CCC[C@@H]1CC2=CC(=O)CC[C@]2(C)[C@H]2CC[C@@]3(C)[C@@H](CC[C@@]3(O)CCC(=O)O)[C@H]12" , output reported SARS-CoV-2 infection rate.
96%

Answer with the recorded SARS-CoV-2 infection rate for the compound listed here: "CCN1CCN(c2ccc(C(C)(C)NC(=O)c3cc4[nH]c5ccccc5c(=O)c4cc3F)cn2)CC1"
25%

For the compound "CCCc1cc(C)[nH]c(=O)c1CNC(=O)c1cc(-c2ccc(N3CCN(C(C)C)CC3)nc2)cc2c1cnn2C(C)C" , give its measured SARS-CoV-2 infection rate value.
13%

Identify measured SARS-CoV-2 infection rate corresponding to "COc1ccc(/C=C2\CCCN=C2c2cccnc2)c(OC)c1"
28%

====

Would you kindly list cell viability for each of these compounds?
Test system: U2OS
Experiment description: cell viability relative to DMSO; higher = less toxic
Experimental context: 72 h; 1 nM
The response must be a number in % with no trailing unit.

Retrieve cell viability measured for "CC(C)C(=O)OC[C@H]1O[C@@H](n2ccc(N)nc2=O)[C@](C)(F)[C@@H]1OC(=O)C(C)C" and print it.
97.1

Fill in reported cell viability for this entry: "CN(C)CCc1c[nH]c2ccc(C[C@H]3COC(=O)N3)cc12"
99

Assign cell viability to the following record: "Cc1ccc(C(=O)N(CCCN)[C@@H](c2oc3cc(Cl)ccc3c(=O)c2Cc2ccccc2)C(C)C)cc1"
100

// fetch cell viability given entry "CC(=O)N1CCN(CCOc2ccc(C3CCN(C4=Nn5c(nnc5C(F)(F)F)CC4)CC3)cc2)CC1"
99.8

====

System: U2OS
Experiment description: relative viability EC50 (midpoint between 100% and the lowest measured viability); higher = less toxic
Experimental context: 72 h
Kindly supply the reported relative viability EC50 values for the records listed here.

Please give the documented relative viability EC50 of "COc1ccc(/C=C\c2cc(OC)c(OC)c(OC)c2)cc1O"
0.006 µM

Return reported relative viability EC50. Input compound: "O=C(NC(=O)c1c(F)cccc1Cl)NC1c2ccccc2-c2ccccc21"
> 10 µM

For the compound "O=S(=O)(O)c1ccc(O)cc1" , give its reported relative viability EC50.
> 10 µM

Query relative viability EC50 for "CC(=O)NCCCOc1ccc(C(=O)N2CCC(N3C(=O)CCc4ccccc43)CC2)cc1"
> 10 µM

Consider the compound "O=C(O)c1cc(N2N=C(C(F)(F)F)/C(=C/c3ccc(-c4ccccc4)o3)C2=O)ccc1Cl" and give its recorded relative viability EC50.
> 10 µM

Dear colleague, please send me the reported relative viability EC50 for "CCNC(=O)CC[C@H](N)C(=O)O" when you can.
> 10 µM

State its relative viability EC50 for this compound: "CCOC(=O)Nc1ccc2c(c1)N(C(=O)CN(CC)CC)c1ccccc1CC2"
> 10 µM

State its relative viability EC50 for this compound: C=CC[N+]1([C@H]2C[C@H]3[C@@H]4CC[C@H]5C[C@H](O)[C@@H](N6CCOCC6)C[C@]5(C)[C@H]4CC[C@]3(C)[C@H]2OC(C)=O)CCCC1 [ROCURONIUM BROMIDE]
> 10 µM

Check the records and state relative viability EC50 for O=[N+]([O-])O[C@H]1CO[C@H]2[C@@H]1OC[C@H]2O[N+](=O)[O-] [isosorbide-dinitrate]
> 10 µM

Give a short answer stating reported relative viability EC50 for "C[C@@H](N[C@H]1CCCC[C@@H]1NC(=O)c1ccc(Cl)cc1)c1cccc2ccccc12" .
> 10 µM

Give me measured relative viability EC50, please, for this compound: "C/C(=N\NC(=S)N1CCC1)c1ccccn1"
0.122 µM

Consider the compound "CC(C)CC(=O)Nc1n[nH]c2c1CN(C(=O)C1CCN(C)CC1)C2(C)C" . State its measured relative viability EC50.
1.32 µM

Hello, please tell me recorded relative viability EC50 for this one: "CC[C@@H](C)N(C)C(=O)c1cc2ccccc2c(-c2ccccc2Cl)n1"
> 10 µM

Identify measured relative viability EC50 associated with "O=C(c1ccccn1)c1cnn2c(-c3ccncc3)ccnc12"
> 10 µM

Quote relative viability EC50 reported for "CSc1ccc(OCc2ncc([N+](=O)[O-])n2C)cc1" please.
> 10 µM

Give the measured relative viability EC50 for CC(C(=O)O)c1ccc(N2Cc3ccccc3C2=O)cc1 (stereo not given)
> 10 µM

Supply reported relative viability EC50 belonging to this compound: "O=c1c2ccccc2nc2n1CCc1c-2[nH]c2ccccc12"
> 10 µM

# return recorded relative viability EC50 for entry "O=C1CCc2ccc(OCCCCN3CCN(c4cccc(Cl)c4Cl)CC3)cc2N1"
> 10 µM

Return value of relative viability EC50 for input "O=C(NNc1ccccc1)c1ccncc1" , no commentary.
> 10 µM

Item "O=C(Nc1cc2cc[nH]c2cn1)c1ccccc1" : provide relative viability EC50
> 10 µM

====

Tested on: U2OS
Experiment description: cell viability relative to DMSO; higher = less toxic
Experimental context: 72 h; 1 nM
For each record, write down the corresponding cell viability.
Give just the number in %; leave the unit off.

State, in one line, measured cell viability of "Cn1c(=O)c2[nH]c(Br)nc2n(C)c1=O"
98.6

Look up and state reported cell viability for "Cc1cc(C(=O)NOCCO)c(Nc2ccc(I)cc2F)n(C)c1=O"
93.1

Return value of cell viability for input "Cc1ncc(C[n+]2csc(CCO)c2C)c(N)n1" , no commentary.
104

Could you please provide reported cell viability for "CCNC(=O)CC[C@H](N)C(=O)O" ? Thanks!
99.8

Write down cell viability measured for item "CCCn1cnc2c1c(=O)n(CCCCC(C)=O)c(=O)n2C"
98.4

====

Tested on: U2OS
Experiment description: cell viability relative to DMSO; higher = less toxic
Experimental context: 72 h; 1 nM
Observable: cell viability (%)
Your answer is read as %, so omit the unit and give the number.

Tell me cell viability reported for "Cc1cc2nc3c(=O)[nH]c(=O)nc-3n(C[C@H](O)[C@H](O)[C@H](O)CO)c2cc1C"
97.4

# return recorded cell viability for input "COc1ccc(C(=O)C2CCN(CC(=O)N(Cc3nc4c(c(=O)[nH]3)COCC4)CC3CC3)CC2)cc1"
99

Supply reported cell viability belonging to this molecule: COc1cc(C(=O)NCc2ccc(OCCN(C)C)cc2)cc(OC)c1OC [trimethobenzamide]
97.6

Consider the molecule "COc1ccc(/C=C2\CCCN=C2c2cccnc2)c(OC)c1" . State its measured cell viability.
94.8

In one line, give reported cell viability of the entry "COc1ccc(C2C(=O)c3ccccc3C2=O)cc1" .
101

Tell us which cell viability value is on record for "CC(=O)NC[C@H]1CN(c2ccc(-c3ccc(CNCc4cnn[nH]4)cc3)c(F)c2)C(=O)O1"
98.9

For the molecule "CNC(=O)[C@@H](Cc1ccccc1)N(C)C(=O)[C@@H](Cc1ccc2ccccc2c1)N(C)C(=O)/C=C/CC(C)(C)N" , report cell viability.
99.9

Using the record for COc1ccnc(C[S+]([O-])c2nc3cc(OC(F)F)ccc3[nH]2)c1OC (stereo not given) , state its measured cell viability.
109

Give the reported cell viability for this molecule. "CCCOc1ccc(C(=O)OCCN(CC)CC)cc1N"
99.9

Return cell viability for the following molecule: O=[N+]([O-])O[C@H]1CO[C@H]2[C@@H]1OC[C@H]2O[N+](=O)[O-] [isosorbide-dinitrate]
100

====

System: Caco-2
Experiment description: drug sensitivity score (DSS) for viability; higher = more toxic; extreme values may be limits of the assay
Experimental context: 72 h
For each entry below, report its drug sensitivity score value.

Give drug sensitivity score for the following compound: "O=c1n(CCCN2CCN(c3cccc(Cl)c3)CC2)nc2ccccn12"
0

Given "CNC(=O)c1cccc(NC(=O)N2CCC(Oc3ccccc3Cl)CC2)c1" , respond with its drug sensitivity score.
0.3

Using known records, supply drug sensitivity score for CC(COc1ccccc1)N(CCCl)Cc1ccccc1 (stereo not drawn)
0.5

Supply drug sensitivity score value. Item: "CC(C)N(CCC(=O)c1ccc2ccccc2c1)Cc1ccccc1"
0

Let me know recorded drug sensitivity score for "c1ccc(CCNc2nc(-c3ccccc3)cs2)cc1" , thanks.
0.9

Supply measured drug sensitivity score of "COc1cccc(-c2ccc(NC(=O)C3=C(C(=O)O)CCC3)c(F)c2)c1" in your reply.
0.9

Please look at this compound and report its drug sensitivity score: CC(=O)Nc1ccc(OCC(O)CNC(C)C)cc1 (stereo not drawn)
0.4

Dear colleague, please send me the reported drug sensitivity score for "COc1cc2c(c(OC)c1OC)-c1ccc(OC)c(=O)cc1[C@@H](NC(C)=O)CC2" when you can.
17.5

Supply recorded drug sensitivity score for C[C@@H]1C(=O)O[C@H]2C[C@@]34[C@H]5C[C@@H](C(C)(C)C)[C@]36[C@@H](OC(=O)[C@@H]6O)O[C@@]4(C(=O)O5)[C@]21O [Ginkgolide A] here.
0

Give the measured drug sensitivity score for "C[C@](N)(Cc1ccc(O)cc1)C(=O)O"
0

Please look at this compound and report its drug sensitivity score: CC(C)Cc1ccc([C@@H](C)C(=O)NCCO)cc1 (racemic)
0

Give reported drug sensitivity score value for "Cc1cc(C(=O)NOCCO)c(Nc2ccc(I)cc2F)n(C)c1=O"
12

Tell me measured drug sensitivity score for O=C(Cc1ccc(-c2ccccc2)cc1)Nc1ccccn1 [difenpiramide] please.
0.2

Let me know recorded drug sensitivity score for "OC[C@@H](O)[C@@H](O)[C@H](O)[C@@H](O)CO" , thanks.
0

Look up and state reported drug sensitivity score for "CN1C(C(=O)Nc2ccccn2)=C(O)c2sccc2S1(=O)=O"
0

Tell us which drug sensitivity score value is on record for "CCCOc1ccc(C(=O)OCCN(CC)CC)cc1N"
0

Item "CC[C@H]1OC(=O)[C@H](C)C(=O)[C@H](C)[C@@H](O[C@@H]2O[C@H](C)C[C@H](N(C)C)[C@H]2O)[C@](C)(OC)C[C@@H](C)C(=O)[C@H](C)[C@H]2N(CCCCn3cnc(-c4cccnc4)c3)C(=O)O[C@]12C" : provide drug sensitivity score
0

Write down drug sensitivity score measured for item COc1cc(C(=O)NCc2ccc(OCCN(C)C)cc2)cc(OC)c1OC [trimethobenzamide]
0
